Values from patent US20240101572A1

- test_target: full-length human PLD2 (Homo sapiens (Human), UniProt O14939)
- Sequence (O14939 whole entry): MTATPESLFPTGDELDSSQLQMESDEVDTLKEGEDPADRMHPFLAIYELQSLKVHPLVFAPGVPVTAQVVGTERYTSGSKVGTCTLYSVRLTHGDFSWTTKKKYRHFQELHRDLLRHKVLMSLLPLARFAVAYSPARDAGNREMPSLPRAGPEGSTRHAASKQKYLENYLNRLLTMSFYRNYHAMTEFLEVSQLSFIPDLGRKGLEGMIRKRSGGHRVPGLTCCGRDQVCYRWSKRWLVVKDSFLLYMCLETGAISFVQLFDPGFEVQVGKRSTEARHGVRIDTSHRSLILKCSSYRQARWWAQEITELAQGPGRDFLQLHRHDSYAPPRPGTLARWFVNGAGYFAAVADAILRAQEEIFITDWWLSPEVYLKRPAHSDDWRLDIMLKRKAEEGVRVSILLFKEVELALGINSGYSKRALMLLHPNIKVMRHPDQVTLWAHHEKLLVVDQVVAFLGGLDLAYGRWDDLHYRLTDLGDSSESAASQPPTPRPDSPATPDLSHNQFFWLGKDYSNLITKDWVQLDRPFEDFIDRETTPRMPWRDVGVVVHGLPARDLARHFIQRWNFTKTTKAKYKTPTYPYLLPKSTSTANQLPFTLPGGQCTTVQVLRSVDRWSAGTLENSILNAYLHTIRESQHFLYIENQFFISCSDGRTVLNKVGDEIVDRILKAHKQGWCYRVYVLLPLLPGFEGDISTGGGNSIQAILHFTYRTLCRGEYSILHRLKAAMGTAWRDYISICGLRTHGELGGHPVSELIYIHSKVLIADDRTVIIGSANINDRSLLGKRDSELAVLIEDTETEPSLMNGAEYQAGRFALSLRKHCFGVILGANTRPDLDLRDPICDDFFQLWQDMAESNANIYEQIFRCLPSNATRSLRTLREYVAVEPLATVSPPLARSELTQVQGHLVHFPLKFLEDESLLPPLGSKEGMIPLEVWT
- assay_overview: Evaluation of human PLD2 enzyme inhibitory activity (Amplex Red / choline oxidase fluorescence)
- Type: biochemical
- condition_info: full-length human PLD2 enzyme; read-out: PLD2 IC50
pIC50: −log10 of the molar value.
measurement_name: pIC50

[[record]]
molecule = "CNC(=O)C(=O)N[C@@H](C)C[C@]1(C#N)CC[C@@]2(CC1)OC(=O)NN=C2c1cc(C(F)(F)F)ccc1Br [Example 2-066]"
test_target = "full-length human PLD2 (Homo sapiens (Human), UniProt O14939)"
observed_value = "> 8.00"


In: Look up pIC50 with full-length human PLD2 (Homo sapiens (Human), UniProt O14939) for this molecule: Cc1cc(Cl)c(C2=NNC(=O)O[C@]23CC[C@@H](C[C@H](C)NC(=O)c2cc(C)n[nH]2)CC3)cn1 [Example 231]
Out: 7.92

In: Look up pIC50 with full-length human PLD2 (Homo sapiens (Human), UniProt O14939) for this molecule: C[C@@H](C[C@H]1CC[C@]2(CC1)OC(=O)NN=C2c1ccc(F)cc1Cl)NC(=O)c1cc2ccccc2o1 [Example 46]
Out: > 8.00

In: Look up pIC50 with full-length human PLD2 (Homo sapiens (Human), UniProt O14939) for this molecule: CC(C)S(=O)(=O)c1ccc(C2=NNC(=O)O[C@]23CC[C@@H](C[C@H](C)NC(=O)c2cc(Cl)no2)CC3)c(Br)c1 [Example 67]
Out: > 8.00
